Target: UT-B (Mus musculus, UniProt Q8VHL0)
Construct: endogenous in cells
Sequence (Q8VHL0 whole entry): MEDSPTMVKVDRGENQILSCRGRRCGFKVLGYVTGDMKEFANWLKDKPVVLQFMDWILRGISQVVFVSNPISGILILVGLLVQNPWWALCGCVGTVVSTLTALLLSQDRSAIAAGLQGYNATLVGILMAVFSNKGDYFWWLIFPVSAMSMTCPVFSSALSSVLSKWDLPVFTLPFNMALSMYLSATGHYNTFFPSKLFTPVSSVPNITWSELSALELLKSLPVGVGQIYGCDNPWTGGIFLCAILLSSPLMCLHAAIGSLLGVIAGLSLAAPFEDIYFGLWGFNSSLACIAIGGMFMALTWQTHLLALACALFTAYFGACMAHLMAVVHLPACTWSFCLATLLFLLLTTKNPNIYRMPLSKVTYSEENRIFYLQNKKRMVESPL
Experiment: erythrocyte lysis model, mouse erythrocytes
Details: concentration when the erythrocyte lysis rate of mice was 50%
Experimental: Erythrocyte lysis rate was calculated: The formula for calculating the lysis rate percentage of erythrocytes, wherein Atest was the absorbance value of the test well, Aneg was the absorbance value of the negative control well, and Apos was the absorbance value of the positive control well. Erythrocyte lysis rate was calculated by measuring absorption at a wavelength of 710 nm. […]
recorded.metric: pIC50
Scale note: pIC50 = -log10(concentration in M).

Looking up CCOC(=O)c1cccc(NC(=O)c2ccc([N+](=O)[O-])o2)c1 , I found its pIC50 recorded as 5.64

Looking up CC(=O)c1cccc(NC(=O)c2ccc([N+](=O)[O-])o2)c1 , I found its pIC50 recorded as 5.61

Looking up CC(C)CNC(=O)c1cccc(NC(=O)c2ccc([N+](=O)[O-])o2)c1 , I found its pIC50 recorded as 6.30

Looking up CCOC(=O)c1c[nH]nc1NC(=O)c1ccc([N+](=O)[O-])o1 , I found its pIC50 recorded as 4.83

Looking up CCOC(=O)c1cc(NC(=O)c2ccc([N+](=O)[O-])o2)[nH]n1 , I found its pIC50 recorded as 4.94

Looking up O=C(NC1CCCCC1)c1cccc(NC(=O)c2ccc([N+](=O)[O-])o2)c1 , I found its pIC50 recorded as 5.58

Looking up CC(C)NC(=O)c1cccc(NC(=O)c2ccc([N+](=O)[O-])o2)c1 , I found its pIC50 recorded as 5.01

Looking up Nc1cccc(NC(=O)c2ccc([N+](=O)[O-])o2)c1 , I found its pIC50 recorded as 4.98

Looking up CNC(=O)c1cc(NC(=O)c2ccc([N+](=O)[O-])o2)ccc1O , I found its pIC50 recorded as 5.58

Looking up CN(C)CCNCC(=O)Nc1ccc(NC(=O)c2ccc([N+](=O)[O-])o2)cc1 , I found its pIC50 recorded as 5.02

Looking up CNC(=O)c1cc(NC(=O)c2ccc([N+](=O)[O-])o2)cc(C(=O)NC)c1 , I found its pIC50 recorded as 5.24

Looking up O=C(NCCCN1CCOCC1)c1cccc(NC(=O)c2ccc([N+](=O)[O-])o2)c1 , I found its pIC50 recorded as 5.36

Looking up Cn1ccc(NC(=O)c2ccc([N+](=O)[O-])o2)n1 , I found its pIC50 recorded as 5.07

Looking up O=C(NCc1ccccc1)c1cccc(NC(=O)c2ccc([N+](=O)[O-])o2)c1 , I found its pIC50 recorded as 5.99

Looking up CN(C)CCC(=O)Nc1ccc(NC(=O)c2ccc([N+](=O)[O-])o2)cc1 , I found its pIC50 recorded as 4.57

Looking up CNC(=O)c1cc(C)cc(NC(=O)c2ccc([N+](=O)[O-])o2)c1 , I found its pIC50 recorded as 5.55

Looking up NC(=O)c1cccc(NC(=O)c2ccc([N+](=O)[O-])o2)c1 , I found its pIC50 recorded as 6.30

Looking up CN1C(=O)c2ccc(NC(=O)c3ccc([N+](=O)[O-])o3)cc2C1=O , I found its pIC50 recorded as 5.29

* * *

target: human UT-B (Homo sapiens, UniProt Q13336); construct: endogenous in cells; host or cells: human erythrocytes; test: erythrocyte lysis model, human erythrocytes; type: cell-based; conditions: class of the IC50 to human UT-B; read-out: Activity level
Sequence (Q13336 whole entry): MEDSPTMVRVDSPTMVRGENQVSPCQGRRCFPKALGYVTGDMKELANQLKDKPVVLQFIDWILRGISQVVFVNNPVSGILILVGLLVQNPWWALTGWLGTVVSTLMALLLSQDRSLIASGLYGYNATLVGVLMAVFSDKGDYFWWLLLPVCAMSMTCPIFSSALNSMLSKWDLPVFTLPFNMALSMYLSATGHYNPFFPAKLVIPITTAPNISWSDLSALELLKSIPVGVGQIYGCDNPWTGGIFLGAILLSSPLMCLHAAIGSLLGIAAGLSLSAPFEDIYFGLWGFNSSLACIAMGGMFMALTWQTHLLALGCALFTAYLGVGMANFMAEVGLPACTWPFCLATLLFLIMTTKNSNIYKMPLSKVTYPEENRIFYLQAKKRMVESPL
pIC50: −log10 of the molar value.
recorded.metric: pIC50

Looking up CC(C)NC(=O)c1cccc(NC(=O)c2ccc([N+](=O)[O-])o2)c1 , I found its pIC50 recorded as > 5.00

Looking up CN1C(=O)c2ccc(NC(=O)c3ccc([N+](=O)[O-])o3)cc2C1=O , I found its pIC50 recorded as 4.70 to 5.00

Looking up O=C(Nc1ccon1)c1ccc([N+](=O)[O-])o1 , I found its pIC50 recorded as > 5.00

Looking up O=C(Nc1ccccc1F)c1ccc([N+](=O)[O-])o1 , I found its pIC50 recorded as > 5.00

Looking up CN(C)CCNCC(=O)Nc1ccc(NC(=O)c2ccc([N+](=O)[O-])o2)cc1 , I found its pIC50 recorded as > 5.00

Looking up CN(C)CCNC(=O)c1cccc(NC(=O)c2ccc([N+](=O)[O-])o2)c1 , I found its pIC50 recorded as > 5.00

Looking up O=C(Nc1ccc2ncccc2c1)c1ccc([N+](=O)[O-])o1 , I found its pIC50 recorded as > 5.00

Looking up O=C(Nc1cccc(O)c1)c1ccc([N+](=O)[O-])o1 , I found its pIC50 recorded as > 5.00

Looking up CC(=O)Nc1ccc(NC(=O)c2ccc([N+](=O)[O-])s2)cc1 , I found its pIC50 recorded as > 5.00
